# System: NCI-H522
# assay notes: NCI tumour cell line growth inhibition, 48 h
The source made the active and inactive calls. Rule as the data show it: active = GI50 up to about 1.1 µM and inactive = higher.
value type: GI50

Known GI50 results, listed for orientation:
Cc1cccc(C)c1NC(=O)C(Cc1c[nH]c2ccccc12)NC(=O)OCc1ccccc1 (stereo not given) ... 20.1 µM (inactive)
COc1ccc(/C=N/Nc2nc(=S)[nH]c3[nH]ncc23)cc1 ... 26.2 µM (inactive)
C[n+]1c2ccccc2cc2c(CNC(CCCNC(=N)N)C(=O)O)cccc21 (stereo not given) ... 1.4 µM (inactive)
C1=Cc2nc1c(-c1ccccc1)c1nc(c(-c3ccccc3)c3ccc([nH]3)c(-c3ccccc3)c3ccc([nH]3)c2-c2ccccc2)C=C1 ... > 100 µM (inactive)

Next item in the queue.
Which GI50 is listed for CN(C)[C@@H]1C(O)=C(C(=O)NCNc2nc3[nH]nnc3c(=O)[nH]2)C(=O)[C@@]2(O)C(O)=C3C(=O)c4c(O)cccc4[C@@](C)(O)[C@H]3C[C@@H]12 ?
20.4 µM (inactive)

----------
# Tested on: HL-60
# assay notes: NCI tumour cell line growth inhibition, 48 h
The source made the active and inactive calls. No stated cut-off is given here; in the data, active = GI50 up to about 1.1 µM and inactive = higher.
Your answer must be one of the following: T (active), F (inactive)

Example entries and their recorded answers appear below.
O=C(NCCO)c1c(O)c2ccccc2[nH]c1=O ... F
NC(=S)Nc1c(S(N)(=O)=O)cc(S(N)(=O)=O)c(Cl)c1Cl ... F
Cc1cc(N(CCC#N)CCC#N)ccc1C(/N=N/c1ccccc1)=N\NC(=O)c1ccccc1 ... F
CCOC(=O)/C=C(/C(=O)OCC)n1cc(Cl)c(=O)n(CC(=O)OCC)c1=O ... F

Please state the recorded outcome for this molecule: N#C/C(=C1\N=C(c2ccccc2O)Oc2ccccc21)c1ccc([N+](=O)[O-])cc1
F

Please state the recorded outcome for this molecule: CCC(=C/[C@H](C)C/C=C/C(C)=C/[C@@H](C)C(=O)[C@@H](C)[C@H](O)[C@@H](C)CC)/C=C/[C@H]1CC=CC(=O)O1
T

Please state the recorded outcome for this molecule: N#C[C@H](C(=O)c1ccccc1F)c1nc2ccccc2s1
F

Please state the recorded outcome for this molecule: COc1ccc(/C(Cl)=C(\CN(C)C)c2ccc(OC)c(OC)c2)cc1OC
F

Please state the recorded outcome for this molecule: COC(=O)Cc1c(-c2c(CC(=O)OC)c3ccccc3n2C2OC(COC3OC(COC(C)=O)C(OC(C)=O)C(OC(C)=O)C3OC(C)=O)C(O)C(O)C2O)[nH]c2ccccc12 (configuration not stated)
F

----------
# Tested on: UACC-62
# assay notes: NCI tumour cell line growth inhibition, 48 h
The source made the active and inactive calls. No stated cut-off is given here; in the data, active = GI50 up to about 1.1 µM and inactive = higher.
Your answer must be one of the following: 1 = active, 0 = inactive

Example entries and their recorded answers appear below.
Cc1cc(S(=O)(=O)NC2=Nc3cccc4cccc(c34)N2)c(S)cc1Cl ... 0
COS(=O)c1cc(Cl)cc(Cl)c1O (stereo unspecified) ... 0
O=[N+]([O-])c1ccc(Cl)cc1C1SCc2nc3ccccc3n21 (stereo unspecified) ... 0

Please state the recorded outcome for this compound: Clc1nc(Nc2nc3ccccc3[nH]2)nc(Cl)c1-c1ccccc1
0

Please state the recorded outcome for this compound: Oc1nc2ccccc2c2oc3ccccc3c12
0

----------
# Test system: TK-10
# assay notes: NCI tumour cell line growth inhibition, 48 h
Activity calls are given as the source filed them. Cut-off read from the data, not from the text of the source: active = GI50 up to about 1.1 µM and inactive = higher.
Your answer must be one of the following: Yes (active), No (inactive)

CC(/C=C/c1ccccc1)=N\NC(N)=S ... No

Please state the recorded outcome for this compound: COS(=O)c1cc(Cl)cc(Cl)c1O (centres undefined)
No

Please state the recorded outcome for this compound: O=C1Nc2ccc(Br)cc2/C1=N/Nc1ccccc1[N+](=O)[O-]
No

Please state the recorded outcome for this compound: CCOC(=O)C(C)(C(=O)OCC)/C(Cl)=C\Cl
No

----------
# Tested on: SW-620
# assay notes: NCI tumour cell line growth inhibition, 48 h
Calls of active or inactive are those of the source. No stated cut-off is given here; in the data, active = GI50 up to about 1.1 µM and inactive = higher.
Your answer must be one of the following: active, inactive

Please state the recorded outcome for this compound: O=[N+]([O-])c1cccnc1S(=O)(=O)c1ccccc1
inactive

----------
# Tested on: MDA-MB-231
# assay notes: NCI tumour cell line growth inhibition, 48 h
Activity calls are given as the source filed them. Rule as the data show it: active = GI50 up to about 1.1 µM and inactive = higher.
# GI50 values compiled below

COc1cc(Oc2nc3ccccc3nc2C(=O)O)cc(OC)c1OC ... > 100 µM (inactive)
CC[C@]12C=CCN3CC[C@@]4(c5cc(Br)c(OC)cc5N(C)[C@H]4[C@@](O)(C(=O)NN)[C@@H]1O)[C@@H]32 ... 70.3 µM (inactive)

Which GI50 is listed for N#Cc1c(-c2ccc([N+](=O)[O-])cc2)c(C#N)c(=O)n(NS(=O)(=O)c2ccccc2)c1-c1ccccc1 ?
> 100 µM (inactive)

Which GI50 is listed for O=C(O)c1cc(=O)c2c(OCC(O)COc3cccc4oc(C(=O)O)cc(=O)c34)cccc2o1 ?
> 81.1 µM (inactive)

Which GI50 is listed for S=C(S)N1CCN(c2cccc(Cl)c2)CC1 ?
68.9 µM (inactive)

----------
# System: RPMI-8226
# assay notes: NCI tumour cell line growth inhibition, 48 h
Active and inactive are the calls of the source. No stated cut-off is given here; in the data, active = GI50 up to about 1.1 µM and inactive = higher.
# GI50 values compiled below

O=C1C=CC2(O)OCC3C=C4O[C@@H]5OC6(CCCCC6)O[C@@H]5C4[C@@H]2[C@@H]13 (stereo not given in full) ... 16.2 µM (inactive)
Cc1ccc(-c2cc[n+]3c(n2)oc2ccccc23)cc1 ... 12.5 µM (inactive)
CSc1nc(O)c2cn(Cc3ccccc3)nc2n1 ... > 100 µM (inactive)
CC(C)=CCN=C(N)N ... 24.9 µM (inactive)
O=C(Nc1ccc2[nH]c3c(-c4ccccc4)nccc3c2c1)c1ccccc1[N+](=O)[O-] ... 1.61 µM (inactive)
O=C1C=CC(=O)C(N(CCO)CCO)=C1.O=C1C=CC2(O)OCCN(CCO)C2=C1 ... 91.6 µM (inactive)
COC(=O)N/N=C(\C)C(CN1CCCCC1)C(C1=C(O)c2ccccc2OC1)c1ccccc1 (stereo not given) ... > 100 µM (inactive)
CCOC(=O)CCn1ncc(Cl)c(Cl)c1=O ... 2.38 µM (inactive)
OC(CCNCc1ccccc1)c1ccc2ccccc2c1 (stereo not given) ... 23.8 µM (inactive)

Next item in the queue.
Which GI50 is listed for CCCCCCCCCCOCCOCCOCCOCCCCC(O)CCCCCCCC1=C[C@H](C)OC1=O (stereo not given in full) ?
0.933 µM (active)

----------
# Test system: OVCAR-8
# assay notes: NCI tumour cell line growth inhibition, 48 h
Active and inactive are the calls of the source. Rule as the data show it: active = GI50 up to about 1.1 µM and inactive = higher.
# GI50 values compiled below

CCOC(=O)C1=NN(c2ccc(C)cc2)C2=CC(C)=NN(C)C(=S)N21 ... 42.9 µM (inactive)
Cc1n[nH]c(=O)n1Nc1ccccc1 ... > 100 µM (inactive)
O=C(Nc1ccc2[nH]c3c(-c4ccccc4)nccc3c2c1)c1ccccc1[N+](=O)[O-] ... 8.11 µM (inactive)

Which GI50 is listed for O=C1[C@@H]2C(c3ccccc3F)=NO[C@@H]2C(=O)N1c1ccc(Cc2ccc(N3C(=O)[C@H]4C(c5ccccc5F)=NO[C@H]4C3=O)cc2)cc1 ?
> 100 µM (inactive)

Which GI50 is listed for CNC(=O)OCC1=C(COC(=O)NC)CN(c2ccc(OC)cc2)C1 ?
> 100 µM (inactive)

Which GI50 is listed for Cc1cccc(C)c1NC(=O)C(Cc1c[nH]c2ccccc12)NC(=O)OCc1ccccc1 (stereo not given) ?
27.3 µM (inactive)

Which GI50 is listed for C/C=C1\CC(C(=O)OCC)CCCCCCCCCCC1=O (stereo not given) ?
43.3 µM (inactive)

Which GI50 is listed for COC(=O)CSc1ccccc1 ?
> 100 µM (inactive)

Which GI50 is listed for O=C(CC1=Nc2nnc(CCCCCCCc3nnc4n3C(=O)C(CC(=O)c3ccccc3)=N4)n2C1=O)c1ccccc1 ?
> 100 µM (inactive)

Which GI50 is listed for COc1ccc(N[S+]([O-])c2cccc(C)c2)cc1 (stereo not given) ?
52.1 µM (inactive)

Which GI50 is listed for O=C(O)c1cc(=O)c2c(OCC(O)COc3cccc4oc(C(=O)O)cc(=O)c34)cccc2o1 ?
99.5 µM (inactive)

Which GI50 is listed for O=C1OC(c2ccccc2)=N/C1=C\c1ccc2ccccc2c1 ?
> 100 µM (inactive)

----------
# System: HCT-116
# assay notes: NCI tumour cell line growth inhibition, 48 h
Activity calls are given as the source filed them. Rule as the data show it: active = GI50 up to about 1.1 µM and inactive = higher.
Your answer must be one of the following: active, inactive

CC(C)/C=C1\CCC(CN(C)C)C1=O (centres undefined) ... active
Clc1nc(Nc2nc3ccccc3[nH]2)nc(Cl)c1-c1ccccc1 ... inactive
COCOC1CCCC[C@@]1(OCCOCCO[C@@]1(c2ccccc2)CCCC[C@H]1OCOC)c1ccccc1 (some centres undefined) ... inactive
Cc1cccc(C)c1NC(=O)/C(CC(=O)CC(c1ccccc1)c1c(O)c2ccccc2oc1=O)=N/O (centres undefined) ... inactive
O=C1CSC(=S)N1/N=C/c1ccc(Cl)c([N+](=O)[O-])c1 ... inactive
CCCCSC1=N/C(=C\c2ccco2)C(Cl)=N1 ... inactive
COc1ccc(OC)c([N+](=O)[O-])c1-c1nc2sc(C)c(C)n2c1/C=N/N=C(N)N ... inactive
CCNCCNc1c2ccccc2nc2ccccc12 ... active

--- query ---
Please state the recorded outcome for this molecule: Cn1c(C(O)C2(c3cccnc3)SCCCS2)cc2ccccc21 (centres undefined)
inactive
